target-system: SARS-CoV-2 SUD-core (SARS-CoV-2, UniProt P0DTD1 1231-1494)
protocol-details: BLI
measurement-conditions: protein: recombinant; tags: N-terminal 6xHis; G4
readout: pKd
// pKd here means minus log10 of the molar concentration (mol/L)

Fill in the blank: the reported pKd of CGGGAGGGCGGGGAGGGC (structured_RNA) [G4-TRF2 (BLI)] is ____.
7.45

The values you see were collected from paper PMC10326071.
